# EXPERIMENTAL TARGET: LRRK2(G2019S mutation, GST-LRRK2(amino acids 970-2527)) (Homo sapiens, UniProt Q5S007, G2019S)
# Construct: GST-LRRK2(amino acids 970-2527); GST (N); purchased Life Technologies Corporation
# Sequence (Q5S007 970-2527 G2019S): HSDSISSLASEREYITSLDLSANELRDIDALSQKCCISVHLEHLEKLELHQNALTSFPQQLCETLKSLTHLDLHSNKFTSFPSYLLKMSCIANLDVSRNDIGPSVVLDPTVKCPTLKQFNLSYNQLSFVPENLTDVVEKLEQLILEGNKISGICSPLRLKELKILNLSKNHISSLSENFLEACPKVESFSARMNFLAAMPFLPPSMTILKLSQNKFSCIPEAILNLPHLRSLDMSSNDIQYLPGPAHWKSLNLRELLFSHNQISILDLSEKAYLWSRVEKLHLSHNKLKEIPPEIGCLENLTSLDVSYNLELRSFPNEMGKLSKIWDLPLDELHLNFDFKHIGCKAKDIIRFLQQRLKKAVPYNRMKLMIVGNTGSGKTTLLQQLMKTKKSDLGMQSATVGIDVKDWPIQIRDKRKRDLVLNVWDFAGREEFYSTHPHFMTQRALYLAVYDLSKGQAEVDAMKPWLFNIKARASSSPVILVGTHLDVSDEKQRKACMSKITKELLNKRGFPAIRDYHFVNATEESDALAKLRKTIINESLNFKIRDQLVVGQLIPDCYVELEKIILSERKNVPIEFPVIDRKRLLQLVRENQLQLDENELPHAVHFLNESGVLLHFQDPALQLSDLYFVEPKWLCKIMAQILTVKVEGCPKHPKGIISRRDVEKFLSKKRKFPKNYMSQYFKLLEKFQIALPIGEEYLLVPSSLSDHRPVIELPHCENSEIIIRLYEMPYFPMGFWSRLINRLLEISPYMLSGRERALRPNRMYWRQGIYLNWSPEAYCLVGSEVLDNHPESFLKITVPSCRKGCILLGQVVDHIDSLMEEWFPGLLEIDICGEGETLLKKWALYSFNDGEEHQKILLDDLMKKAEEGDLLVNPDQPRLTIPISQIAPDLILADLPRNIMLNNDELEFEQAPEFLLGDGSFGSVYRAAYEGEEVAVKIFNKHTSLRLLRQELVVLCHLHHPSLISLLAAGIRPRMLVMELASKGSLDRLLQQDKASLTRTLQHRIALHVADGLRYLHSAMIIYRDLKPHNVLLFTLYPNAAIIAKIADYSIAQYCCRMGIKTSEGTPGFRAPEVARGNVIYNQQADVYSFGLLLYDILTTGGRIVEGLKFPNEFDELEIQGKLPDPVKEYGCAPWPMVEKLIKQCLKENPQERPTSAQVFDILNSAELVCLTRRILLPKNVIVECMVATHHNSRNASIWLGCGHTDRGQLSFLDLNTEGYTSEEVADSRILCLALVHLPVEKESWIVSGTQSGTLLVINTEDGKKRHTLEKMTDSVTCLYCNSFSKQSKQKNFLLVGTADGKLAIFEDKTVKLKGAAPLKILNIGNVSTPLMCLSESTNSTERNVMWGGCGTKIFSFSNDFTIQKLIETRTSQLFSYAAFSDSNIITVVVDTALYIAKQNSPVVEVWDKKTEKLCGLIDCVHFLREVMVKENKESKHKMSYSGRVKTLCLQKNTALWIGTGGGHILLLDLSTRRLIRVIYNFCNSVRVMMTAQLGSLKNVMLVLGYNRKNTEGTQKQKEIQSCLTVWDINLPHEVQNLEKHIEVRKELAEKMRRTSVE
# METHOD NOTES: LRRK2 5 mM ATP LanthaScreen Assay
# Type: biochemical
# ASSAY SETUP: mean IC50 of several tests
Reported pIC50 values for a set of compounds
Scale explanation: pIC50 corresponds to minus log10 of a concentration expressed in moles per litre.

As a guide, the following entries are already answered.
{"SMILES NOTATION": "CC(C)Oc1ccc2[nH]nc(-c3ccnc(N4CCOCC4)c3)c2c1", "pIC50": 7.85}
{"SMILES NOTATION": "CC(C)Oc1ccc2[nH]nc(-c3ccnc(N4CCC(O)CC4)c3)c2c1", "pIC50": 7.82}
{"SMILES NOTATION": "Cn1cc(-c2ccc3[nH]nc(-c4ccnc(N5CC(F)C5)c4)c3c2)cn1", "pIC50": 7.64}
{"SMILES NOTATION": "CC(C)Oc1ccc2[nH]nc(-c3ccnc(N4CCN(S(C)(=O)=O)CC4)c3)c2c1", "pIC50": 7.80}
{"SMILES NOTATION": "Cn1cc(-c2ccc3[nH]nc(-c4ccnc(N5CCOCC5)c4)c3c2)cn1", "pIC50": 7.92}
{"SMILES NOTATION": "Cc1c(-c2ccc3[nH]nc(-c4ccnc(N5CCOCC5)c4)c3c2)cnn1C", "pIC50": 8.10}
{"SMILES NOTATION": "CC(C)Oc1ccc2[nH]nc(-c3ccnc(N4CCN(C)CC4)c3)c2c1", "pIC50": 7.66}
{"SMILES NOTATION": "Oc1cc(-c2ccc3[nH]nc(-c4ccnc(N5CCC(O)CC5)c4)c3c2)ccn1", "pIC50": 7.80}

Query: Find the recorded pIC50 belonging to CC(C)Oc1ccc2[nH]nc(-c3ccnc(N4CCNC(=O)C4)c3)c2c1 and report it.
Response: 7.85

Query: Fill in: pIC50 of Cn1cc(-c2ccc3[nH]nc(-c4ccnc(N5CCN(S(C)(=O)=O)CC5)c4)c3c2)cn1 is ___
Response: 7.62

---

# EXPERIMENTAL TARGET: LRRK2(G2019S mutation, GST-LRRK2(amino acids 970-2527)) (Homo sapiens, UniProt Q5S007, G2019S)
# Construct: GST-LRRK2(amino acids 970-2527); GST (N); purchased Life Technologies Corporation
# METHOD NOTES: LRRK2 Km ATP LanthaScreen Assay
# Format: biochemical
# ASSAY SETUP: Km ATP LanthaScreen Assay; LRRK2 G2019S; mean IC50 values; Examples 185-215; read-out: LRRK2 IC5)
REPORTED PROPERTY: log10(IC50) (log10 of the value in nM)
Field: value | Transform: log10 | Quantity: IC50 | Unit: nM

The following molecules have reported results that may help.
{"SMILES NOTATION": "CC(C)Oc1ccc2[nH]nc(-c3ccnc(N4CCN(c5cnccn5)CC4)c3)c2c1", "log10(IC50)": 0.81}
{"SMILES NOTATION": "CC(C)Oc1ccc2[nH]nc(-c3ccnc(N4CCS(=O)(=O)c5ccccc5C4)c3)c2c1", "log10(IC50)": 2.19}
{"SMILES NOTATION": "CC(C)Oc1ccc2[nH]nc(-c3ccnc(N4CCCC4)c3)c2c1", "log10(IC50)": 0.70}
{"SMILES NOTATION": "CC(C)Oc1ccc2[nH]nc(-c3ccnc(N4Cc5cccnc5C4)c3)c2c1", "log10(IC50)": 1.24}
{"SMILES NOTATION": "CC(C)Oc1ccc2[nH]nc(-c3ccnc(N4CCN(c5ccccc5)C(=O)C4)c3)c2c1", "log10(IC50)": 0.95}

Query: For the molecule Cc1nc2c(o1)CCN(c1cc(-c3n[nH]c4ccc(OC(C)C)cc34)ccn1)C2 , what log10(IC50) is on record?
Response: 1.11

Query: Looking for the measured log10(IC50) of CC(C)Oc1ccc2[nH]nc(-c3ccnc(N4CCn5nc(C6CC6)nc5C4)c3)c2c1 , can you help?
Response: 1.19

Query: Need log10(IC50) of CC(C)Oc1ccc2[nH]nc(-c3ccnc(N4CCN(CC5CC5)CC4)c3)c2c1 , thanks.
Response: 0.79
